Reported IC50 values for a set of compounds
# ASSAY_TEXT: Cytotoxicity against mouse EN2 cells after 24 hrs by clonogenic assay
# Format: functional, cell-based
# CONDITION_DETAILS: EN2, 24 h
ASSAY_METRIC: IC50

• C[C@H]1[C@@H](O[C@H]2O[C@@H]3O[C@]4(C)CC[C@H]5[C@H](C)CC[C@@H]([C@H]2C)[C@@]35OO4)O[C@@H]2O[C@]3(C)CC[C@H]4[C@H](C)CC[C@@H]1[C@@]24OO3 = > 50 µM
• C[C@@H]1CC[C@H]2[C@@H](C)C(=O)O[C@@H]3O[C@@]4(C)CC[C@@H]1[C@]32OO4 [ARTEMISININ] = > 50 µM
